Assay: Crystallographic stability of Form I (TGA, DSC, XRPD, IR after storage)
Format: physicochemical
Conditions: six weeks open, 50° C.
experimental readout: TGA <175° C. (%)
Write down the numeric answer in % and omit the unit.

The recorded TGA <175° C. for entry Cc1cc(Nc2ccnc3c2CCC3O)ccc1NCCc1c[nH]c2c(C)cccc12 (stereo not shown) [Form I] equals 0

* * *

Tested on: Male NMRI mice
Assay: Ro-4-1284 antagonism in mice (drug induced neurological effects)
Assay type: in vivo
Conditions: Ro-4-1284 antagonism in mice
experimental readout: drug induced neurological side effects

c1ccc2c(CCNc3ccc(Nc4ccncc4)cc3)c[nH]c2c1 : yes
Cc1cccc2c(CCNc3ccc(Nc4ccncc4)cc3)c[nH]c12 : yes
OC1CCc2c(Nc3ccc(NCCc4c[nH]c5ccccc45)cc3)ccnc21 (stereo not shown) [drawing 33] : yes
Cc1cc(Nc2ccnc3c2CCC3O)ccc1NCCc1c[nH]c2c(C)cccc12 (single isomer, unassigned) [Compound No. 1] : No
Cc1cc(Nc2ccncc2)ccc1NCCc1c[nH]c2ccccc12 : yes
Cc1cc(Nc2ccnc3c2CCC3O)ccc1NCCc1c[nH]c2c(C)cccc12 (single isomer, unassigned) [Compound No. 2] : No

Entry OC1CCc2c(Nc3ccc(NCCc4c[nH]c5ccccc45)cc3)ccnc21 (stereo not shown) [drawing 34] ; drug induced neurological side effects = yes

Source listed as patent US8853406B2.
